Reported glycan array binding signal (z-score) values for a set of binders
Target: Neu5Ac(a2-3)Gal(b1-4)GlcNAc(b1-6)GalNAc
Experiment: glycan array binding signal (z-score within array); higher = stronger binding
Details: glycan notation: IUPAC condensed, linker removed
This is one part of a sample in which the strongest signals are shown more often than they occur.

binder	glycan array binding signal (z-score)
AT1G15820(2) (Arabidopsis thaliana), Q9LMQ2 (protein) MAMAVSGAVLSGLGSSFLTGGKRGATALASGVGTGAQRVGRKTLIVAAAAAQPKKSWIPAVKGGGNFLDPEWLDGSLPGDFGFDPLGLGKDPAFLKWYREAELIHGRWAMAAVLGIFVGQAWSGVAWFEAGAQPDAIAPFSFGSLLGTQLLLMGWVESKRWVDFFNPDSQSVEWATPWSKTAENFANYTGDQGYPGGRFFDPLGLAGKNRDGVYEPDFEKLERLKLAEIKHSRLAMVAMLIFYFEAGQGKTPLGALGL	-0.315
cFel (Cyprinus carpio), P68512 (protein) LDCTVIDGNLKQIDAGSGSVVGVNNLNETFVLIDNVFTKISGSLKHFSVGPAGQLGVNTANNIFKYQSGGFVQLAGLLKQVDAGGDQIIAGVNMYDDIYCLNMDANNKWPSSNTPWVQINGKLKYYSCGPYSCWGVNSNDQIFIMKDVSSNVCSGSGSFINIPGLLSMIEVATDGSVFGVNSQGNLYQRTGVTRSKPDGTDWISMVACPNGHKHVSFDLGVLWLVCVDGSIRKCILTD	-0.95
TIM1 (protein) ADGIQSVKVGGEAGPSVTLPCHYSGAVTSMCWNRGSCSLFTCQNGIVWTNGTHVTYRKDTRYKLLGDLSRRDVSLTIENTAVSDSGVYCCRVEHRGWFNDMKITVSLEIVPPHHHHHH	-0.189
LBL-152 (Laetiporus bicolor), B0D650 (protein) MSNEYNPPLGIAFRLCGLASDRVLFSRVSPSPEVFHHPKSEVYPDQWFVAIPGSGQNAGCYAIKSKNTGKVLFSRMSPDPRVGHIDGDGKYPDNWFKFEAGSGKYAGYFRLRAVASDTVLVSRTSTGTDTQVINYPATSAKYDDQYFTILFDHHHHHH	-0.16
